- Assay Procedure: RP, 100 × 0.5 mm, 2.7 µm, 45 °C, 0.015 mL/min, estimated dead time 0.83 min; A: water + 0.9% formic acid; B: acetonitrile + 0.9% formic acid; gradient (min/%B) 0/1 0.5/1 4/95 4.5/1 5/1
- Measurement Parameters: stereoisomer not certain
Measured Endpoint: LC retention time (min)

O=c1c(OS(=O)(=O)O)c(-c2ccc(O)c(O)c2)oc2cc(O)cc(O)c12 [Quercetin 3-O-sulfate] | 2.82
COc1ccc(C(=O)O)cc1OC | 2.4
COc1ccc(C2CC(=O)c3c(O)cc(O)cc3O2)cc1O (centres undefined) | 3.27
COc1cc(/C=C/C(=O)O)ccc1O | 2.44

###

- Assay Procedure: RP, Phenomenex Synergi Hydro-RP, 250 × 2 mm, 4 µm, 25 °C, 0.2 mL/min, estimated dead time 2.5 min; A: water + 0.1% formic acid, pH 3; B: acetonitrile + 0.1% formic acid, pH 3; gradient (min/%B) 0/0.5 7/0.5 12/12.5 25/16.3 47/35 48/65 50/65 50.1/0.5
- Measurement Parameters: stereoisomer not certain
Measured Endpoint: LC retention time (min)

O=c1c(O)c(-c2ccc(O)cc2)oc2cc(OC3OC(CO)C(O)C(O)C3O)cc(O)c12 (centres undefined) [kaempferol-7-O-glucoside] | 38.3
O=C(CCc1ccc(O)cc1)c1c(O)cc(O)cc1OC1OC(CO)C(O)C(O)C1O (centres undefined) [Phloridzin] | 39.6
O=C(C=Cc1ccc(O)cc1)OCC1OC(Oc2c(-c3ccc(O)cc3)oc3cc(O)cc(O)c3c2=O)C(O)C(O)C1O (centres undefined) [Tiliroside] | 47
O=C1c2c(O)cc(O)cc2OC(c2ccc(O)c(O)c2)C1O (centres undefined) [Taxifolin] | 33.9

###

- Assay Procedure: RP, Agilent ZORBAX Eclipse XDB-C18, 100 × 2.1 mm, 1.8 µm, 50 °C, 0.4 mL/min, estimated dead time 0.55 min; A: water + 0.1% formic acid, pH 3; B: methanol + 0.1% formic acid, pH 3; gradient (min/%B) 0/2 10/100 14.5/100 14.51/2 16.5/2
- Measurement Parameters: stereoisomer not certain
Measured Endpoint: LC retention time (min)

COc1cccc(O)c1O | 3.2
O=C([O-])C(O)c1ccccc1 (stereo unspecified) | 3.01
NCCc1c[nH]c2ccccc12 | 2.51
O=Cc1ccc(O)cc1 [4-Hydroxybenzaldehyde] | 3.42
COc1ccc(C(=O)O)cc1OC | 4.84
CC1NCCc2cc(O)c(O)cc21 (stereo unspecified) | 1.57

###

- Assay Procedure: RP, Waters ACQUITY UPLC BEH C18, 100 × 2.1 mm, 1.7 µm, 65 °C, 0.4 mL/min, estimated dead time 0.55 min; A: water + 0.1% formic acid, pH 3; B: 80% acetonitrile + 20% acetone + 0.1% formic acid, pH 3; gradient (min/%B) 0/0 5/100 5.5/0 6/0
- Measurement Parameters: stereoisomer not certain
Measured Endpoint: LC retention time (min)

A: O=C(O)C1OC(Oc2c[nH]c3ccccc23)C(O)C(O)C1O (stereo not drawn) [Indoxyl beta-d-glucuronide]
B: O=C(O)CCc1ccccc1
Quick one: lower LC retention time, A or B ? Reply briefly: the label of your chosen item.
A

###

- Assay Procedure: RP, Agilent InfinityLab Poroshell 120 EC-C18, 100 × 3 mm, 2.7 µm, 25 °C, 0.4 mL/min, estimated dead time 1.1 min; A: water + 0.1% formic acid, pH 3; B: acetonitrile + 0.1% formic acid, pH 3; gradient (min/%B) 0/5 10/25 20/40 24/90 25/90 26/5 30/5
- Measurement Parameters: stereoisomer not certain
Measured Endpoint: LC retention time (min)

I: CC1OC(OCC2OC(Oc3c(-c4ccc(O)c(O)c4)oc4cc(O)cc(O)c4c3=O)C(O)C(O)C2O)C(O)C(O)C1O (configuration not stated)
II: COc1ccc(C2CC(=O)c3c(O)cc(O)cc3O2)cc1O (configuration not stated)
Between these two entries, I and II , state which has the higher LC retention time. Respond using the label that marks the chosen record.
II
(II: 17.4 min, I: 8.79 min)

1: COc1cc(CC(COC2OC(CO)C(O)C(O)C2O)C(COC2OC(CO)C(O)C(O)C2O)Cc2ccc(O)c(OC)c2)ccc1O (configuration not stated) [Secoisolariciresinol diglucoside]
2: OCC(Cc1cccc(O)c1)C(CO)Cc1cccc(O)c1 (configuration not stated)
Recorded LC retention time values differ for 1 and 2 ; which one is higher? Output the label that corresponds to your choice.
2

P: O=C1c2ccccc2C(=O)c2c1cc(O)c(CO)c2O
Q: O=C(O)C=Cc1ccc(O)cc1
Which value of LC retention time is numerically greater: that of P or that of Q ? State the label of the item chosen.
P
